- method_notes: Plasma pharmacokinetics, noncompartmental
- Assay type: in vivo, human
- assay_context: human, plasma, oral, COMBO10, day 15 of cycle 1, plasma, mean (SD)
- Method: To assess plasma concentrations of WNT974, its active metabolite LHA333, and encorafenib, serial blood samples were collected on days 1 and 15 of cycle 1, and pre-dose blood samples were collected on days 2, 8, 16, and 22 of cycle 1, and on day 1 of cycles 2, 3, and 4. PK parameters were determined using noncompartmental methods. The PK analysis set included all patients with at least one available valid PK concentration measurement who received at least one dose of study drug.
measured_endpoint: Cmax (ng/mL)
Please state the figure in ng/mL; there is no need to write the unit.

Need Cmax, item Cc1cc(-c2ncc(CC(=O)Nc3ccc(-c4cnccn4)cn3)cc2C)ccn1 [WNT974]
42.9

---

- method_notes: Plasma pharmacokinetics, noncompartmental
- Assay type: in vivo, human
- assay_context: human, plasma, oral, COMBO5 (5 mg WNT974 once daily + encorafenib + cetuximab), day 15 of cycle 1, plasma, mean (SD)
measured_endpoint: AUC(0-t) (µg·h/mL)
Please state the figure in µg·h/mL; there is no need to write the unit.

Need AUC(0-t), item Cc1cc(-c2ncc(CC(=O)Nc3ccc(-c4cnccn4)cn3)cc2C)ccn1
0.22

---

- method_notes: Plasma pharmacokinetics, noncompartmental
- Format: in vivo, human
- assay_context: human, plasma, oral, COMBO10 (10 mg WNT974 once daily + encorafenib + cetuximab), day 15 of cycle 1, plasma, mean (SD)
measured_endpoint: AUC(0-t) (ng·h/mL)
Please state the figure in ng·h/mL; there is no need to write the unit.

Need AUC(0-t), item Cc1cc(-c2ncc(CC(=O)Nc3ccc(-c4cnccn4)cn3)cc2C)ccn1
460

---

- method_notes: Plasma pharmacokinetics, noncompartmental
- Type: in vivo, human
- assay_context: human, plasma, oral, COMBO7.5, day 15 of cycle 1, plasma, median (range)
measured_endpoint: Tmax (h)
Please state the figure in h; there is no need to write the unit.

Need Tmax, item Cc1cc(-c2ncc(CC(=O)Nc3ccc(-c4cnccn4)cn3)cc2C)ccn1
1.02

---

- method_notes: Plasma pharmacokinetics, noncompartmental
- Format: in vivo, human
- assay_context: human, plasma, oral, COMBO7.5, day 15 of cycle 1, plasma, mean (SD)
measured_endpoint: AUC
Write down the value, and be sure its unit follows.

Need AUC, item Cc1cc(-c2ncc(CC(=O)Nc3ccc(-c4cnccn4)cn3)cc2C)ccn1
384 ng·h/mL

---

- method_notes: Plasma pharmacokinetics, noncompartmental
- Assay type: in vivo, human
- assay_context: human, plasma, oral, COMBO5, day 15 of cycle 1, plasma, mean (SD)
measured_endpoint: half-life (min)
Please state the figure in min; there is no need to write the unit.

Need half-life, item Cc1cc(-c2ncc(CC(=O)Nc3ccc(-c4cnccn4)cn3)cc2C)ccn1
282

---

- method_notes: Plasma pharmacokinetics, noncompartmental
- Assay type: in vivo, human
- assay_context: human, plasma, oral, 200 mg, All cohorts, encorafenib 200 mg once daily, day 15 of cycle 1, plasma, mean (SD)
measured_endpoint: half-life (h)
Please state the figure in h; there is no need to write the unit.

Need half-life, item COC(=O)N[C@@H](C)CNc1nccc(-c2cn(C(C)C)nc2-c2cc(Cl)cc(NS(C)(=O)=O)c2F)n1 [Encorafenib, encorafenib]
4.3

---

- method_notes: Plasma pharmacokinetics, noncompartmental
- Type: in vivo, human
- assay_context: human, plasma, oral, 200 mg, All cohorts, encorafenib 200 mg once daily, day 15 of cycle 1, plasma, mean (SD)
measured_endpoint: AUC
Write down the value, and be sure its unit follows.

Need AUC, item COC(=O)N[C@@H](C)CNc1nccc(-c2cn(C(C)C)nc2-c2cc(Cl)cc(NS(C)(=O)=O)c2F)n1 [Encorafenib, encorafenib]
13800 ng·h/mL

---

- method_notes: Plasma pharmacokinetics, noncompartmental
- Format: in vivo, human
- assay_context: human, plasma, oral, COMBO5, day 15 of cycle 1, plasma, median (range)
measured_endpoint: Tmax (h)
Please state the figure in h; there is no need to write the unit.

Need Tmax, item Cc1cc(-c2ncc(CC(=O)Nc3ccc(-c4cnccn4)cn3)cc2C)ccn1 [WNT974]
1

---

- method_notes: Plasma pharmacokinetics, noncompartmental
- Format: in vivo, human
- assay_context: human, plasma, oral, 200 mg, All cohorts, encorafenib 200 mg once daily, day 15 of cycle 1, plasma, mean (SD)
measured_endpoint: Cmax (ng/mL)
Please state the figure in ng/mL; there is no need to write the unit.

Need Cmax, item COC(=O)N[C@@H](C)CNc1nccc(-c2cn(C(C)C)nc2-c2cc(Cl)cc(NS(C)(=O)=O)c2F)n1
2840

---

- method_notes: Plasma pharmacokinetics, noncompartmental
- Format: in vivo, human
- assay_context: human, plasma, oral, 200 mg, All cohorts (N = 17), encorafenib 200 mg once daily, day 15 of cycle 1, plasma, mean (SD)
- Method: To assess plasma concentrations of WNT974, its active metabolite LHA333, and encorafenib, serial blood samples were collected on days 1 and 15 of cycle 1, and pre-dose blood samples were collected on days 2, 8, 16, and 22 of cycle 1, and on day 1 of cycles 2, 3, and 4. PK parameters were determined using noncompartmental methods. The PK analysis set included all patients with at least one available valid PK concentration measurement who received at least one dose of study drug.
measured_endpoint: AUC(0-t)

Need AUC(0-t), item COC(=O)N[C@@H](C)CNc1nccc(-c2cn(C(C)C)nc2-c2cc(Cl)cc(NS(C)(=O)=O)c2F)n1
13700 ng·h/mL

---

- method_notes: Plasma pharmacokinetics, noncompartmental
- Type: in vivo, human
- assay_context: human, plasma, oral, COMBO10, day 15 of cycle 1, plasma, mean (SD)
measured_endpoint: AUC (ng·h/mL)
Please state the figure in ng·h/mL; there is no need to write the unit.

Need AUC, item Cc1cc(-c2ncc(CC(=O)Nc3ccc(-c4cnccn4)cn3)cc2C)ccn1
542

---

- method_notes: Plasma pharmacokinetics, noncompartmental
- Type: in vivo, human
- assay_context: human, plasma, oral, COMBO5, day 15 of cycle 1, plasma, mean (SD)
measured_endpoint: AUC
Write down the value, and be sure its unit follows.

Need AUC, item Cc1cc(-c2ncc(CC(=O)Nc3ccc(-c4cnccn4)cn3)cc2C)ccn1
0.227 µg·h/mL

---

- method_notes: Plasma pharmacokinetics, noncompartmental
- Assay type: in vivo, human
- assay_context: human, plasma, oral, COMBO7.5, day 15 of cycle 1, plasma, mean (SD)
measured_endpoint: half-life (h)
Please state the figure in h; there is no need to write the unit.

Need half-life, item Cc1cc(-c2ncc(CC(=O)Nc3ccc(-c4cnccn4)cn3)cc2C)ccn1
5.4

---

- method_notes: Plasma pharmacokinetics, noncompartmental
- Format: in vivo, human
- assay_context: human, plasma, oral, COMBO10, day 15 of cycle 1, plasma, median (range)
measured_endpoint: Tmax
Write down the value, and be sure its unit follows.

Need Tmax, item Cc1cc(-c2ncc(CC(=O)Nc3ccc(-c4cnccn4)cn3)cc2C)ccn1
4 h

---

- method_notes: Plasma pharmacokinetics, noncompartmental
- Assay type: in vivo, human
- assay_context: human, plasma, oral, COMBO5, day 15 of cycle 1, plasma, mean (SD)
measured_endpoint: Cmax (ng/mL)
Please state the figure in ng/mL; there is no need to write the unit.

Need Cmax, item Cc1cc(-c2ncc(CC(=O)Nc3ccc(-c4cnccn4)cn3)cc2C)ccn1 [WNT974]
51

---

- method_notes: Plasma pharmacokinetics, noncompartmental
- Format: in vivo, human
- assay_context: human, plasma, oral, COMBO7.5, day 15 of cycle 1, plasma, mean (SD)
measured_endpoint: Cmax (ng/mL)
Please state the figure in ng/mL; there is no need to write the unit.

Need Cmax, item Cc1cc(-c2ncc(CC(=O)Nc3ccc(-c4cnccn4)cn3)cc2C)ccn1
93.4
